Just for reference, ChEMBL document CHEMBL1145867 is where these values come from.

- System: Bacteria
- experimental protocol: In vitro antimicrobial activity against gram-negative organisms (10)
- Type: functional
readout label: MIC (µg/mL)
Your answer should be a plain number; it is taken to be in µg/mL.

In the examples that follow, each entry is paired with its recorded MIC.
COc1ccc(Cn2c(=O)ccn([C@@H]3OC([C@H](O)[C@H](NCCCNC(=O)[C@@H](C)N)C(=O)OC(C)(C)C)[C@@H](O[Si](C)(C)C(C)(C)C)[C@H]3O[Si](C)(C)C(C)(C)C)c2=O)cc1 (some centres undefined); 64
COC1C(O)[C@@H](OC(C(NCCCNC(=O)[C@H](NC(=O)[C@@H](NC(=O)N[C@H](C(=O)O)C(C)C)C2CCN=C(N)N2)C(OC(=O)CCCCCCCCCCCN(O)C(=N)N)C(C)C)C(=O)O)[C@H]2O[C@@H](n3ccc(=O)[nH]c3=O)[C@H](O)[C@@H]2O)O[C@H]1CN (some centres undefined); 8
COc1ccc(Cn2c(=O)ccn([C@@H]3OC([C@H](O)[C@H](NCCCNC(=O)[C@H](N)CCCCNC(=O)OCc4ccccc4)C(=O)OC(C)(C)C)[C@@H](O[Si](C)(C)C(C)(C)C)[C@H]3O[Si](C)(C)C(C)(C)C)c2=O)cc1 (some centres undefined); 128

Task: Identify measured MIC corresponding to COc1ccc(Cn2c(=O)ccn([C@@H]3OC([C@H](O)[C@H](NCCCNC(=O)[C@H](NC(=O)[C@H](CCC/N=C(\N)N[N+](=O)[O-])NC(=O)N[C@H](C(=O)OCc4ccccc4)C(C)C)C(C)O)C(=O)OC(C)(C)C)[C@@H](O[Si](C)(C)C(C)(C)C)[C@H]3O[Si](C)(C)C(C)(C)C)c2=O)cc1 (some centres undefined)
Result: 64
